Tested on: 598228-144-R-J1-PDC complex spheroids, viability
test.protocol: Anticancer human tumor 598228-144-R-J1-PDC patient-derived serous endometrial adenocarcinoma cell line growth inhibition [CLK]
condition.summary: second compound 0.0316 µM; first compound 0.3 µM; stronger effect = lower value
Note to self: viability, T/C under 50% means class 1, ties and anything higher get class 0.

Completed entries (count: 4):
- NC(=O)C(=Cn1cnc(-c2cc(C(F)(F)F)cc(C(F)(F)F)c2)n1)c1cncnc1 + CNC(=O)c1ccc(Nc2nc(OC3CCCC3)c3c(-c4ccc5nc(C)oc5c4)c[nH]c3n2)c(OC)c1: class 0
- C=CC(=O)Nc1cc(Nc2nccc(-c3cn(C)c4ccccc34)n2)c(OC)cc1N(C)CCN(C)C + CNC(=O)c1ccc(Nc2nc(OC3CCCC3)c3c(-c4ccc5nc(C)oc5c4)c[nH]c3n2)c(OC)c1: class 0
- CC(C)CC(NC(=O)C(Cc1ccccc1)NC(=O)c1cnccn1)B(O)O (stereo unspecified) + CNC(=O)c1ccc(Nc2nc(OC3CCCC3)c3c(-c4ccc5nc(C)oc5c4)c[nH]c3n2)c(OC)c1: class 1
- NC(=O)C(=Cn1cnc(-c2cc(C(F)(F)F)cc(C(F)(F)F)c2)n1)c1cncnc1 + CN1CCN(c2cc(C(=O)Nc3cc4cc(-c5cnn(C)c5)ccc4cn3)ccn2)CC1: class 1

*Q* Lab log: compare recorded viability, T/C with 50%; is it strictly lower for C=CC(=O)Nc1cc(Nc2nccc(-c3cn(C)c4ccccc34)n2)c(OC)cc1N(C)CCN(C)C + CN1CCN(c2cc(C(=O)Nc3cc4cc(-c5cnn(C)c5)ccc4cn3)ccn2)CC1 ?
*A* class 0

*Q* Lab log: compare recorded viability, T/C with 50%; is it strictly lower for CC(C)CC(NC(=O)C(Cc1ccccc1)NC(=O)c1cnccn1)B(O)O (stereo unspecified) + CN1CCN(c2cc(C(=O)Nc3cc4cc(-c5cnn(C)c5)ccc4cn3)ccn2)CC1 ?
*A* class 1

====

System: 598228-144-R-J1-PDC complex spheroids, viability
test.protocol: Anticancer human tumor 598228-144-R-J1-PDC cell line growth inhibition [CLK];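 note: spheroids exposed to compounds for seven days before readout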
condition.summary: curve of first compound; second compound 10 µM
pIC50: −log10 of the molar value.
Field: pIC50. Provide a value for each of the compounds that follow.

* CC(C)CC(NC(=O)C(Cc1ccccc1)NC(=O)c1cnccn1)B(O)O (stereo not drawn) + CN1CCN(c2cc(C(=O)Nc3cc4cc(-c5cnn(C)c5)ccc4cn3)ccn2)CC1 | > 9.02

Each compound below has a recorded value; state its pIC50.
1. O=C(c1cc(Cc2n[nH]c(=O)c3ccccc23)ccc1F)N1CCN(C(=O)C2CC2)CC1 + CNC(=O)c1ccc(Nc2nc(OC3CCCC3)c3c(-c4ccc5nc(C)oc5c4)c[nH]c3n2)c(OC)c1
2. CC(Nc1ccc2c(c1)OCCn1cc(N3C(=O)OCC3C(F)F)nc1-2)C(N)=O (stereo not drawn) + CNC(=O)c1ccc(Nc2nc(OC3CCCC3)c3c(-c4ccc5nc(C)oc5c4)c[nH]c3n2)c(OC)c1

*A*
< 5.00
7.00

====

System: 598228-144-R-J1-PDC complex spheroids, viability
test.protocol: Anticancer human tumor 598228-144-R-J1-PDC cell line growth inhibition [CLK];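 note: spheroids exposed to compounds for seven days before readout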
condition.summary: curve of first compound; second compound 10 µM
measured.quantity: IC50

Answered examples (4):
• COC1C=CCC(C)C(C)S(=O)(=O)NC(=O)c2ccc3c(c2)N(CC2CCC21)CC1(CCCc2cc(Cl)ccc21)CO3 (stereo not given) + CNC(=O)c1ccc(Nc2nc(OC3CCCC3)c3c(-c4ccc5nc(C)oc5c4)c[nH]c3n2)c(OC)c1 = 2810 nM
• COC1C=CCC(C)C(C)S(=O)(=O)NC(=O)c2ccc3c(c2)N(CC2CCC21)CC1(CCCc2cc(Cl)ccc21)CO3 (stereo not given) + CN1CCN(c2cc(C(=O)Nc3cc4cc(-c5cnn(C)c5)ccc4cn3)ccn2)CC1 = < 31.6 nM
• CC1COCCN1c1cc(C2(S(C)(=N)=O)CC2)nc(-c2ccnc3[nH]ccc23)n1 (stereo not given) + CN1CCN(c2cc(C(=O)Nc3cc4cc(-c5cnn(C)c5)ccc4cn3)ccn2)CC1 = < 31.6 nM
• COc1c(OCCCN2CCOCC2)ccc2c3n(c(=NC(=O)c4cnc(N)nc4)nc12)CCN3 + CN1CCN(c2cc(C(=O)Nc3cc4cc(-c5cnn(C)c5)ccc4cn3)ccn2)CC1 = < 3.16 nM

*Q* Recorded IC50 for C=CC(=O)Nc1cc(Nc2nccc(-c3cn(C)c4ccccc34)n2)c(OC)cc1N(C)CCN(C)C + CNC(=O)c1ccc(Nc2nc(OC3CCCC3)c3c(-c4ccc5nc(C)oc5c4)c[nH]c3n2)c(OC)c1 with 598228-144-R-J1-PDC complex spheroids, viability, please?
*A* > 300 nM

====

Test system: 598228-144-R-J1-PDC complex spheroids, viability
test.protocol: Anticancer human tumor 598228-144-R-J1-PDC cell line growth inhibition [CLK];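 note: spheroids exposed to compounds for seven days before readout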;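 for viability, T/C: 100% = DMSO vehicle control wells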
condition.summary: second compound 3.16 µM; first compound 3.16 µM; stronger effect = lower value
Note to self: viability, T/C under 60% means 1, ties and anything higher get 0.

- CC(CO)NC(=O)c1cc(-c2ccc(Cl)cc2)nn(-c2cnn(C)c2)c1=O (stereo not given) + CNC(=O)c1ccc(Nc2nc(OC3CCCC3)c3c(-c4ccc5nc(C)oc5c4)c[nH]c3n2)c(OC)c1: 0
- C=CC(=O)N1CCN(c2nc(=O)n(-c3c(C)ccnc3C(C)C)c3nc(-c4c(O)cccc4F)c(F)cc23)C(C)C1 (stereo not given) + CNC(=O)c1ccc(Nc2nc(OC3CCCC3)c3c(-c4ccc5nc(C)oc5c4)c[nH]c3n2)c(OC)c1: 0
- COC1C=CCC(C)C(C)S(=O)(=O)NC(=O)c2ccc3c(c2)N(CC2CCC21)CC1(CCCc2cc(Cl)ccc21)CO3 (stereo not given) + CNC(=O)c1ccc(Nc2nc(OC3CCCC3)c3c(-c4ccc5nc(C)oc5c4)c[nH]c3n2)c(OC)c1: 1
- C=C(F)C(=O)N1CCN(c2nc(OCC3CCCN3C)nc3c2CCN(c2cccc4cccc(Cl)c24)C3)CC1CC#N (stereo not given) + CNC(=O)c1ccc(Nc2nc(OC3CCCC3)c3c(-c4ccc5nc(C)oc5c4)c[nH]c3n2)c(OC)c1: 0

*Q* Lab log: compare recorded viability, T/C with 60%; is it strictly lower for Nc1ccn(C2OC(CO)C(O)C2(F)F)c(=O)n1 (stereo not given) + CN1CCN(c2cc(C(=O)Nc3cc4cc(-c5cnn(C)c5)ccc4cn3)ccn2)CC1 ?
*A* 1

*Q* Lab log: compare recorded viability, T/C with 60%; is it strictly lower for COc1cccc2c1C(=O)c1c(O)c3c(c(O)c1C2=O)CC(O)(C(=O)CO)CC3OC1CC(N)C(O)C(C)O1 (stereo not given) + CNC(=O)c1ccc(Nc2nc(OC3CCCC3)c3c(-c4ccc5nc(C)oc5c4)c[nH]c3n2)c(OC)c1 ?
*A* 1

*Q* Lab log: compare recorded viability, T/C with 60%; is it strictly lower for CC(CO)NC(=O)c1cc(-c2ccc(Cl)cc2)nn(-c2cnn(C)c2)c1=O (stereo not given) + CN1CCN(c2cc(C(=O)Nc3cc4cc(-c5cnn(C)c5)ccc4cn3)ccn2)CC1 ?
*A* 1

====

Tested on: 598228-144-R-J1-PDC complex spheroids, viability
test.protocol: Anticancer human tumor 598228-144-R-J1-PDC cell line growth inhibition [CLK]; active = viability on the fitted dose curve at most 10% of control; inactive = the rest;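 note: spheroids exposed to compounds for seven days before readout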
condition.summary: second compound 1 µM; first compound 1 µM
Respond only with the outcome that fits, drawn from active, inactive

Completed entries (count: 4):
• COC1C=CCC(C)C(C)S(=O)(=O)NC(=O)c2ccc3c(c2)N(CC2CCC21)CC1(CCCc2cc(Cl)ccc21)CO3 (stereo not given) + CN1CCN(c2cc(C(=O)Nc3cc4cc(-c5cnn(C)c5)ccc4cn3)ccn2)CC1 = active
• C=CC(=O)N1CCN(c2nc(=O)n(-c3c(C)ccnc3C(C)C)c3nc(-c4c(O)cccc4F)c(F)cc23)C(C)C1 (stereo not given) + CNC(=O)c1ccc(Nc2nc(OC3CCCC3)c3c(-c4ccc5nc(C)oc5c4)c[nH]c3n2)c(OC)c1 = inactive
• CC1(C)CCC(CN2CCN(c3ccc(C(=O)NS(=O)(=O)c4ccc(NCC5CCOCC5)c([N+](=O)[O-])c4)c(Oc4cnc5[nH]ccc5c4)c3)CC2)=C(c2ccc(Cl)cc2)C1 + CN1CCN(c2cc(C(=O)Nc3cc4cc(-c5cnn(C)c5)ccc4cn3)ccn2)CC1 = active
• COc1c(OCCCN2CCOCC2)ccc2c3n(c(=NC(=O)c4cnc(N)nc4)nc12)CCN3 + CNC(=O)c1ccc(Nc2nc(OC3CCCC3)c3c(-c4ccc5nc(C)oc5c4)c[nH]c3n2)c(OC)c1 = active

Query molecule follows.
*Q* What classification did CCCS(=O)(=O)Nc1ccc(F)c(C(=O)c2c[nH]c3ncc(-c4ccc(Cl)cc4)cc23)c1F + CNC(=O)c1ccc(Nc2nc(OC3CCCC3)c3c(-c4ccc5nc(C)oc5c4)c[nH]c3n2)c(OC)c1 end up with in this test?
*A* inactive

Data credit: PubChem BioAssay AID2060614
